max response: recorded values
tested on: NIH3T3; test: Cytotoxic Profiling of Annotated Libraries Using Quantitative High-Throughput Screening (AID 1296008); details: Five cell lines viability, CellTiter-Glo ATP luminescence, 48-72 h; hits give low values; further: on the % scale 0 is the no-effect control and ±100 the full control effect; nearly all actives have a fitted effect of over 60% in size
Results filed as inconclusive are left out. The source made the active and inactive calls. The call rests on the fitted dose curve; in most records, active means well fitted inhibition curve with a large enough effect; inconclusive means small, poorly fitted or top-dose-only effect; inactive means flat fitted curve, though single readings scatter.

A selection of reference data follows.
molecule: C[C@@]1(c2cc(-c3cncnc3)c(F)cc2F)CCSC(N)=N1
max response: -1.07% (inactive)
//
molecule: COc1cc([C@H]2Oc3cc([C@H]4Oc5cc(O)cc(O)c5C(=O)[C@H]4O)ccc3O[C@H]2CO)ccc1O
max response: 0.0248% (inactive)

Prompt line: I would be grateful if you could share the reported max response for CC=C1C2C=C(C)CC1(N)c1ccc(=O)[nH]c1C2 (stereo not given) .
Response line: -12.9% (inactive)

Prompt line: I would be grateful if you could share the reported max response for CCNC(=O)CCCC=CC[C@@H]1[C@H](C=CC(O)CCc2ccccc2)[C@@H](O)C[C@@H]1O (stereo not given in full) .
Response line: -1.84% (inactive)

Prompt line: I would be grateful if you could share the reported max response for NC(=O)c1ccc(N(C(N)=O)c2c(F)cccc2F)nc1-c1ccc(F)cc1F .
Response line: 4.54% (inactive)
